# protocol: Cytotoxicity against human HuH7 cells assessed as reduction in cell viability measured after 24 hrs by cell titer blue assay
# Assay type: cell-based, Huh-7
Residues, ends and D or L forms follow the SMILES beside them. *: point of attachment. X1 = COc1ccc(/C=C\c2cc(OC)c(OC)c(OC)c2)cc1N*; Bz = O=C(c1ccccc1)*
Please go through the items and note down their CC50 at 24 h.

// CC50 at 24 h lookup, compound = COc1ccc(/C=C\c2cc(OC)c(OC)c(OC)c2)cc1NC(=O)CN , result: 173 µM

Record COc1ccc(/C=C\c2cc(OC)c(OC)c(OC)c2)cc1NC(=O)CCNC(=O)[C@H](CCCNC(=N)N)NC(=O)[C@H](CCCNC(=N)N)NC(=O)c1ccccc1 . Reported CC50 at 24 h: 190 µM

// COc1ccc(/C=C\c2cc(OC)c(OC)c(OC)c2)cc1NC(=O)CNC(=O)[C@H](CCCNC(=N)N)NC(=O)[C@H](CCCNC(=N)N)NC(=O)c1ccccc1 : CC50 at 24 h value = 88.6 µM

Value of measured CC50 at 24 h for the entry COc1ccc(/C=C\c2cc(OC)c(OC)c(OC)c2)cc1NC(=O)CNC(=O)CNC(=O)[C@H](CCCNC(=N)N)NC(=O)[C@H](CCCNC(=N)N)NC(=O)c1ccccc1 (Bz-RRGG-X1) : 59.7 µM

// CC50 at 24 h value for COc1ccc(/C=C\c2cc(OC)c(OC)c(OC)c2)cc1N : > 100 µM

Just so you know, measured CC50 at 24 h for COc1ccc(/C=C\c2cc(OC)c(OC)c(OC)c2)cc1NC(=O)[C@H](C)NC(=O)[C@H](CCCNC(=N)N)NC(=O)[C@H](CCCCN)NC(=O)c1ccccc1 came out at > 100 µM

Measured CC50 at 24 h of COc1ccc(/C=C\c2cc(OC)c(OC)c(OC)c2)cc1O [COMBRETASTATIN A4] : 38.3 µM

Reported CC50 at 24 h of COc1ccc(/C=C\c2cc(OC)c(OC)c(OC)c2)cc1NC(=O)[C@H](CO)NC(=O)[C@H](CCCNC(=N)N)NC(=O)[C@H](CCCNC(=N)N)NC(=O)c1ccccc1 : > 100 µM

The compound identified as COc1ccc(/C=C\c2cc(OC)c(OC)c(OC)c2)cc1NC(=O)[C@H](CO)NC(=O)[C@H](CCCNC(=N)N)NC(=O)[C@H](CCCCN)NC(=O)c1ccccc1 registered its CC50 at 24 h at 77.9 µM

CC50 at 24 h measured on COc1ccc(/C=C\c2cc(OC)c(OC)c(OC)c2)cc1NC(=O)[C@H](C)N = 123 µM

In plain terms, COc1ccc(/C=C\c2cc(OC)c(OC)c(OC)c2)cc1NC(=O)[C@H](C)NC(=O)[C@H](CCCNC(=N)N)NC(=O)[C@H](CCCNC(=N)N)NC(=O)c1ccccc1 has a documented CC50 at 24 h of 111 µM

Lookup result for COc1ccc(/C=C\c2cc(OC)c(OC)c(OC)c2)cc1NC(=O)CNC(=O)[C@H](CCCNC(=N)N)NC(=O)[C@H](CCCCN)NC(=O)c1ccccc1 ; measured CC50 at 24 h: > 100 µM

----------
# Tested on: dengue virus type 2
# protocol: Antiviral activity against wild type Dengue virus serotype 2 infected in human HuH7 cells assessed as reduction in viral titer measured after 24 hrs by Cell-Titer Glo luminescent assay
# Type: functional, organism-based
# condition-notes: Huh-7, 24 h
assay-readout: pEC50
Schema: pEC50 number; meaning minus log10 of the concentration expressed in molar units.

Kindly note the recorded pEC50 for COc1ccc(/C=C\c2cc(OC)c(OC)c(OC)c2)cc1O , which is 6.06

----------
# protocol: Cytotoxicity against human HuH7 cells assessed as reduction in cell viability measured after 72 hrs by cell titer blue assay
# Format: cell-based, Huh-7
Residues, ends and D or L forms follow the SMILES beside them. *: point of attachment. X1 = COc1ccc(/C=C\c2cc(OC)c(OC)c(OC)c2)cc1N*; Bz = O=C(c1ccccc1)*
Assign classes using reported CC50 at 72 h values and the ranges low (below 20 nM), middle (20 nM to below 100 nM), high (100 nM or more), please.

Place this compound in its band: COc1ccc(/C=C\c2cc(OC)c(OC)c(OC)c2)cc1NC(=O)[C@H](C)NC(=O)[C@H](CCCNC(=N)N)NC(=O)[C@H](CCCCN)NC(=O)c1ccccc1
middle

Into which category would you place COc1ccc(/C=C\c2cc(OC)c(OC)c(OC)c2)cc1NC(=O)CCNC(=O)[C@H](CCCNC(=N)N)NC(=O)[C@H](CCCNC(=N)N)NC(=O)c1ccccc1 ?
high

Class label required: COc1ccc(/C=C\c2cc(OC)c(OC)c(OC)c2)cc1NC(=O)CN
middle

Class for COc1ccc(/C=C\c2cc(OC)c(OC)c(OC)c2)cc1NC(=O)[C@H](C)NC(=O)[C@H](CCCNC(=N)N)NC(=O)[C@H](CCCNC(=N)N)NC(=O)c1ccccc1 ?
high

Which class is correct for the following compound? COc1ccc(/C=C\c2cc(OC)c(OC)c(OC)c2)cc1NC(=O)[C@H](CO)NC(=O)[C@H](CCCNC(=N)N)NC(=O)[C@H](CCCCN)NC(=O)c1ccccc1
high

Lab note: which band did COc1ccc(/C=C\c2cc(OC)c(OC)c(OC)c2)cc1NC(=O)[C@H](CO)NC(=O)[C@H](CCCNC(=N)N)NC(=O)[C@H](CCCNC(=N)N)NC(=O)c1ccccc1 land in?
middle

Into which bin does this compound go? COc1ccc(/C=C\c2cc(OC)c(OC)c(OC)c2)cc1O
low

Bin? COc1ccc(/C=C\c2cc(OC)c(OC)c(OC)c2)cc1N
low

# bin label for COc1ccc(/C=C\c2cc(OC)c(OC)c(OC)c2)cc1NC(=O)CNC(=O)[C@H](CCCNC(=N)N)NC(=O)[C@H](CCCCN)NC(=O)c1ccccc1
high

Record COc1ccc(/C=C\c2cc(OC)c(OC)c(OC)c2)cc1NC(=O)CNC(=O)[C@H](CCCNC(=N)N)NC(=O)[C@H](CCCNC(=N)N)NC(=O)c1ccccc1 — which class?
middle

Please indicate the class for COc1ccc(/C=C\c2cc(OC)c(OC)c(OC)c2)cc1NC(=O)CNC(=O)CNC(=O)[C@H](CCCNC(=N)N)NC(=O)[C@H](CCCNC(=N)N)NC(=O)c1ccccc1 (Bz-RRGG-X1) based on its CC50 at 72 h.
middle

Just checking, what class would you give COc1ccc(/C=C\c2cc(OC)c(OC)c(OC)c2)cc1NC(=O)[C@H](C)N here?
low

----------
# test-system: Genome polyprotein (dengue virus type 2, UniProt P29990)
# protocol: Prodrug activation assessed as Dengue virus serotype 2 NS2B-NS3 protease expressed in Escherichia coli BL21 lambda (DE3) cells-mediated compound hydrolysis in TRIS buffer at pH 9 at 500 uM incubated for 2 hrs by HPLC-UV analysis
# condition-notes: dengue virus type 2, pH 9, 2 h
assay-readout: Drug metabolism

{"structure-as-smiles": "COc1ccc(/C=C\\c2cc(OC)c(OC)c(OC)c2)cc1NC(=O)[C@H](C)N", "Drug metabolism": "Metabolite_Notdetected"}
{"structure-as-smiles": "COc1ccc(/C=C\\c2cc(OC)c(OC)c(OC)c2)cc1NC(=O)[C@H](CO)NC(=O)[C@H](CCCNC(=N)N)NC(=O)[C@H](CCCCN)NC(=O)c1ccccc1", "Drug metabolism": "6.3%"}
{"structure-as-smiles": "COc1ccc(/C=C\\c2cc(OC)c(OC)c(OC)c2)cc1NC(=O)CN", "Drug metabolism": "Metabolite_Notdetected"}
{"structure-as-smiles": "COc1ccc(/C=C\\c2cc(OC)c(OC)c(OC)c2)cc1NC(=O)[C@H](CO)NC(=O)[C@H](CCCNC(=N)N)NC(=O)[C@H](CCCNC(=N)N)NC(=O)c1ccccc1", "Drug metabolism": "3.4%"}

Quick note, Drug metabolism for COc1ccc(/C=C\c2cc(OC)c(OC)c(OC)c2)cc1N landed at Metabolite_Notdetected

----------
# protocol: Cytotoxicity against human HeLa cells assessed as reduction in cell viability measured after 72 hrs by cell titer blue assay
# Type: cell-based
Would you mind telling me the reported log10 of CC50 at 72 h of each entry?
Lab note - CC50 at 72 h converted to log10 from values in µM.

Lab note: measured log10 of CC50 at 72 h of COc1ccc(/C=C\c2cc(OC)c(OC)c(OC)c2)cc1NC(=O)CN was -1.42

Data point: COc1ccc(/C=C\c2cc(OC)c(OC)c(OC)c2)cc1NC(=O)CNC(=O)[C@H](CCCNC(=N)N)NC(=O)[C@H](CCCCN)NC(=O)c1ccccc1 ; log10 of CC50 at 72 h = -1.11

The value of log10 of CC50 at 72 h measured for the molecule COc1ccc(/C=C\c2cc(OC)c(OC)c(OC)c2)cc1NC(=O)[C@H](CO)NC(=O)[C@H](CCCNC(=N)N)NC(=O)[C@H](CCCNC(=N)N)NC(=O)c1ccccc1 turned out to be -1.53

Input COc1ccc(/C=C\c2cc(OC)c(OC)c(OC)c2)cc1O [COMBRETASTATIN A4] . Output log10 of CC50 at 72 h: -3.37

Quick note, log10 of CC50 at 72 h for COc1ccc(/C=C\c2cc(OC)c(OC)c(OC)c2)cc1N landed at -2.83

Entry COc1ccc(/C=C\c2cc(OC)c(OC)c(OC)c2)cc1NC(=O)[C@H](C)NC(=O)[C@H](CCCNC(=N)N)NC(=O)[C@H](CCCCN)NC(=O)c1ccccc1 — recorded log10 of CC50 at 72 h = -1.61
